The reported numbers originate from patent US9540424B2.

Biological target: MuSA (Mus musculus, UniProt P07724)
Sequence (P07724 25-608): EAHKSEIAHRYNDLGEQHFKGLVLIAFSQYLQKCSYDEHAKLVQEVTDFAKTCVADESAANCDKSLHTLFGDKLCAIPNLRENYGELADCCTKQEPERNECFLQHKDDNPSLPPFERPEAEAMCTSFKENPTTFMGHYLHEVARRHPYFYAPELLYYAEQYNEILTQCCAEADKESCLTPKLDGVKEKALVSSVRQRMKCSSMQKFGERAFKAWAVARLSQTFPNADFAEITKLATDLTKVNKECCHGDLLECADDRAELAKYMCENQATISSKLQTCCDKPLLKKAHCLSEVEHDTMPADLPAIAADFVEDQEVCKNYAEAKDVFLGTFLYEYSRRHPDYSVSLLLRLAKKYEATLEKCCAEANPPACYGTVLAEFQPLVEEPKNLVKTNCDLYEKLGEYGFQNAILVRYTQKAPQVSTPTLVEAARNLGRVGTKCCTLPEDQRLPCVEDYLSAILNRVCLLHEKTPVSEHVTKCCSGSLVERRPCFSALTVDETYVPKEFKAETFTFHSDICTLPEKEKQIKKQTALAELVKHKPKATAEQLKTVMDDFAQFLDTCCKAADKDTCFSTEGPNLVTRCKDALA
Test: Biacore kinetics of SABAs on immobilized serum albumin: MuSA
Type: binding

MOLECULE	cross reaction with MuSA
SABA4.1: HSA binding clone of SABA4 (protein, His6 tag) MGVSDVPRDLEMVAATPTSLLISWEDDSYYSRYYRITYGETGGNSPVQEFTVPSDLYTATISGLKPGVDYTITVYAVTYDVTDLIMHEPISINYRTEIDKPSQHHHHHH	did not cross react
SABA3.1: His-tagged SABA3 sequence (protein, His6 tag) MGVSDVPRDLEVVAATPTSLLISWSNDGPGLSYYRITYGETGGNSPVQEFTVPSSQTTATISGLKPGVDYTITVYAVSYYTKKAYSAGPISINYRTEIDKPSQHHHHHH	did not cross react
